- assay system: Acetylcholinesterase (Homo sapiens) (UniProt P22303)
- Sequence (P22303 whole entry, looked up): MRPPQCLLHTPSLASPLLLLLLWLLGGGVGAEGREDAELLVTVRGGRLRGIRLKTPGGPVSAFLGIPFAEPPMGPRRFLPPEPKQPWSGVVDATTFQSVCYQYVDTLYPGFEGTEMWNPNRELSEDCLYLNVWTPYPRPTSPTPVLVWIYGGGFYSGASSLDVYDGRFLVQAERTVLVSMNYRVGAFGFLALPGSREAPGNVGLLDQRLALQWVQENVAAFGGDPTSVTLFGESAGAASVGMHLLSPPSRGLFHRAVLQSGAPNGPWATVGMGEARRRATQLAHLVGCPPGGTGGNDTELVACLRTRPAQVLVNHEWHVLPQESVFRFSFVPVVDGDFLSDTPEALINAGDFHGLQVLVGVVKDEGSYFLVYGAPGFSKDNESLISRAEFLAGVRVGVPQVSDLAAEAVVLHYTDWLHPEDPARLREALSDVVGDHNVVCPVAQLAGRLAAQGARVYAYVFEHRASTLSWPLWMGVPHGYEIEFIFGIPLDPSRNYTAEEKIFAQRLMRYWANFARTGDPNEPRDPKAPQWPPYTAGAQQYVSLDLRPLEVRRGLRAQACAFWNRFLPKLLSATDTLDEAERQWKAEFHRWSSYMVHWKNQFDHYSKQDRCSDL
- assay comment: Acetylcholinesterase (AChE) small molecule antagonists: colormetric cell-based qHTS assay (AID 1347395); also: nearly all actives have a fitted effect of over 30% in size
- experimental context: SH-SY5Y cells AChE activity, colorimetric (Ellman); series mostly up to 115 µM
Results filed as inconclusive are left out. Active and inactive are the calls of the source. Calls follow the shape of the full dose curve.
# valid calls are 1 = active, -1 = inactive; nothing else

Record excerpt, results attached:
compound	qualitative label
CC1(C)[C@H](/C=C2\CCSC2=O)[C@@H]1C(=O)OCc1coc(Cc2ccccc2)c1	-1
[Cl][Hg][c]1ccccc1	-1
COP(=S)(OC)Oc1nc(Cl)c(Cl)cc1Cl	-1

Recorded test outcome, item "CSC(C)(C)/C=N/O"
-1

Entry "[O-][Cl+3]([O-])([O-])O" : call = ?
-1

// return assay outcome for "COC(=O)c1cc(Oc2ccc(Cl)cc2Cl)ccc1[N+](=O)[O-]"
-1

Outcome? "[F][Sn]([c]1ccccc1)([c]1ccccc1)[c]1ccccc1"
-1

Recorded test outcome, item "CCCCCCC[CH2][Sn]([Cl])([Cl])[CH2]CCCCCCC"
-1

Recorded test outcome, item "Nc1ccc(N=Nc2ccccc2)cc1"
-1

Hello, I am checking results. What call was entered for "CNC(=O)Oc1cc(C)cc(C(C)C)c1" ?
1

How did this test come out for CCNc1nc(NC(C)C(C)C)nc(SC)n1 (stereo unspecified) ?
-1

What call does the record list for "S=C=NCCc1ccccc1" ?
-1

Any idea what this test logged for CCC(C)Nc1c([N+](=O)[O-])cc(C(C)(C)C)cc1[N+](=O)[O-] (stereo unspecified) ?
-1

Returns: the outcome recorded for "CC(C)Br" in this assay.
-1

Write down the call the test reported for this compound. Item: "Cc1cc(C2CC2)nc(Nc2ccccc2)n1"
-1

====

- assay system: Nuclear receptor subfamily 1 group I member 3 (Homo sapiens)
- assay comment: qHTS assay to identify small molecule agonists of the constitutive androstane receptor (CAR) signaling pathway (AID 1224839); also: nearly all actives have a fitted effect of over 15% in size; also: potency is read from the fitted curve at half-maximal effect;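 as to activation: HepG2 cells stably carrying human CAR and a CYP2B6 luciferase reporter; % is scaled to controls: 0 for no effect and ±100 for the full control effect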
- experimental context: HepG2 hCAR CYP2B6-luciferase, agonist mode, 24 h; series mostly up to 92.4 µM
Inconclusive results are not listed. Active and inactive are the calls of the source. Calls follow the shape of the dose curve; as a rule, active = well fitted activation curve with a large enough effect in the repeat runs; inconclusive = weak or mixed curves; inactive = no such curve, though single readings can be large or run the other way.
test readout: Potency

Look over these answered cases.
compound	Potency
Cc1c([N+](=O)[O-])c(C)c([N+](=O)[O-])c(C(C)(C)C)c1[N+](=O)[O-]	34.4 µM (active)
O=[N+]([O-])c1ccccc1-c1ccccc1	inactive
CN(C)CCc1c[nH]c2ccccc12	inactive
Oc1cccc(Cl)c1Cl	inactive

Give its Potency value. Item: O=S1(=O)OCC2C(CO1)C1(Cl)C(Cl)=C(Cl)C2(Cl)C1(Cl)Cl (configuration not stated)
17.2 µM (active)

State the recorded Potency for this entry: "CN"
inactive

Param item = "N#Cc1sc2c(=O)c3ccccc3c(=O)c=2sc1C#N" ; retrieve measured Potency.
2.17 µM (active)

====

- assay comment: Caspase-3/7 induction in CHO-K1 cells by small molecules, qHTS assay (AID 1346980); also: % is scaled to controls: 0 for no effect and ±100 for the full control effect; nearly all actives have a fitted effect of over 15% in size
- experimental context: CHO-K1 caspase-3/7 induction, Caspase-Glo luminescence, 17 h; series mostly up to 92.4 µM
Active and inactive are the calls of the source. Calls come from the whole dose curve; as a rule, active = well fitted activation curve with a large enough effect in the repeat runs; inconclusive = weak or mixed curves; inactive = flat fitted curve, though single readings scatter.
Field 'call' accepts active, inactive

Reference set (4 entries):
molecule	qualitative label
O=C(NC(=O)c1ccccc1Cl)Nc1ccc(OC(F)(F)F)cc1	inactive
COc1nc(C)nc(NC(=O)NS(=O)(=O)c2ccccc2Cl)n1	inactive
O=[N+]([O-])c1cccc2cccc([N+](=O)[O-])c12	inactive
COP(=S)(OC)Oc1ccc([N+](=O)[O-])c(C)c1	inactive

Returns: the outcome recorded for "Nc1ccc(Cl)cc1C(=O)c1ccccc1F" in this assay.
inactive

Short answer needed: outcome of this test for "c1ccc(Nc2ccc(Nc3ccccc3)cc2)cc1" ?
inactive

What classification did "Cc1ccn2nc(S(=O)(=O)Nc3c(F)cccc3F)nc2n1" end up with in this test?
inactive

====

- assay comment: qHTS assay to identify aromatase inhibitors - cell viability counter screen (AID 743084);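 also: cells stimulated with testosterone during compound exposure; % is scaled to controls: 0 for no effect and ±100 for the full control effect; nearly all actives have a fitted effect of over 55% in size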
- experimental context: MCF-7 aro ERE viability, CellTiter-Fluor, 24 h; series mostly up to 70.3 µM
Inconclusive results are not listed. Calls of active or inactive are those of the source. The call rests on the fitted dose curve; in most records, active means well fitted cell-killing curve with a large enough effect in the repeat runs; inconclusive means weak or mixed curves, or effect the other way; inactive means no such curve, though single readings can be large or run the other way.
Outcomes you can answer with include only these: Yes (active), No (inactive)

molecule	qualitative label
CC(=O)C(Cl)C(=O)N(C)C (configuration not stated)	No
CN(C)CCc1c[nH]c2ccccc12	No
COc1cnc(OC)n2nc(NS(=O)(=O)c3c(OCC(F)F)cccc3C(F)(F)F)nc12	No

Given COP(=S)(NC(C)C)Oc1ccc(C)cc1[N+](=O)[O-] (configuration not stated) , state the outcome it received in this test.
No

Please share the test call associated with "O=S(=O)(NS(=O)(=O)C(F)(F)F)C(F)(F)F" .
No

Identify the outcome logged in this assay for the molecule shown: "O=P(Cl)(Cl)Cl"
No

====

- assay system: Androgen receptor (Homo sapiens)
- assay comment: qHTS assay to identify small molecule antagonists of the androgen receptor (AR) signaling pathway using the MDA cell line (AID 743042; also: nearly all actives have a fitted effect of over 55% in size)
- experimental context: MDA-kb2 AR-luc, MMTV luciferase, R1881 antagonist, 16 h; series mostly up to 70.3 µM
Inconclusive results are not listed. Activity calls are given as the source filed them. The call rests on the fitted dose curve; in most records, active means well fitted inhibition curve with a large enough effect in the repeat runs; inconclusive means weak or mixed curves, or effect the other way; inactive means no such curve, though single readings can be large or run the other way.
Please reply with one of these outcomes: TRUE (active), FALSE (inactive)

compound	qualitative label
O=C1C2(Cl)C3(Cl)C4(Cl)C(Cl)(Cl)C5(Cl)C3(Cl)C1(Cl)C5(Cl)C24Cl (centres undefined)	TRUE
CC(=O)[O][Pb]([c]1ccccc1)([c]1ccccc1)[c]1ccccc1	TRUE
S=C=Nc1ccccc1	FALSE
S=C=NCCc1ccccc1	FALSE
CC(C)=CC1C(C(=O)OC(C#N)c2cccc(Oc3ccccc3)c2)C1(C)C (centres undefined)	FALSE
[Cl][Hg][c]1ccccc1	TRUE

I'd appreciate the recorded outcome for "CCNS(=O)(=O)C(F)(F)C(F)(F)C(F)(F)C(F)(F)C(F)(F)C(F)(F)C(F)(F)C(F)(F)F" from this test.
FALSE

Please share the test call associated with "N#Cc1c2ccccc2cc2ccccc12" .
FALSE

Called result for "Cc1ccccc1OP(=O)(Oc1ccccc1C)Oc1ccccc1C"
FALSE

Could you check what this test reported for "O=c1[nH]c(Cl)c(Cl)cc1Cl" ?
FALSE

What call does the record list for "CCCCCCCc1ccc(O)cc1" ?
FALSE

# outcome recorded in this test, key = "COP(=O)(OC)O/C(=C\Cl)c1cc(Cl)c(Cl)cc1Cl"
TRUE

====

- assay system: Glucocorticoid receptor (Homo sapiens)
- assay comment: qHTS assay to identify small molecule agonists of the glucocorticoid receptor (GR) signaling pathway (AID 720691); also: % is scaled to controls: 0 for no effect and ±100 for the full control effect
- experimental context: GR-bla HeLa, beta-lactamase reporter ratio, 18 h
Results filed as inconclusive are left out. Calls of active or inactive are those of the source. The call rests on the fitted dose curve; in most records, active means well fitted activation curve with a large enough effect in the signal ratio in the repeat runs (not every such curve was filed as active); inconclusive means weak or mixed curves, or effect the other way; inactive means no such curve, though single readings can be large or run the other way; the % refers to the signal ratio.
Pick one: active, inactive

What did this assay record as the result for CNC(=O)O/N=C(\C)C(C)S(C)(=O)=O (centres undefined) ?
inactive

====

- assay system: Peroxisome proliferator-activated receptor delta (Homo sapiens) (UniProt Q03181)
- Sequence (Q03181 whole entry, looked up): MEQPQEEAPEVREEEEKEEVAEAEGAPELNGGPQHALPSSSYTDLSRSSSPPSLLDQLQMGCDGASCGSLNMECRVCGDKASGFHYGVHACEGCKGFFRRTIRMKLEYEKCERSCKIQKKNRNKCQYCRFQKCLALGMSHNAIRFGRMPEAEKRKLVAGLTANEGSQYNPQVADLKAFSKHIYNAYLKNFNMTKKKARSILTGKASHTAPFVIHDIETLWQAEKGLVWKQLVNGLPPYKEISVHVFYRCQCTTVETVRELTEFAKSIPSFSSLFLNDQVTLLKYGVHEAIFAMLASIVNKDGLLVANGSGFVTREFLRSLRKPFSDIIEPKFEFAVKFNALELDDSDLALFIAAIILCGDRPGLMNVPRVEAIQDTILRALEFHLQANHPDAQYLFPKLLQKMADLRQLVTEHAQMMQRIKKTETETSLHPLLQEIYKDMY
- assay comment: qHTS assay to identify small molecule agonists of the peroxisome proliferator-activated receptor delta (PPARd) signaling pathway (AID 743212);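 also: HEK293H cells with PPARd UAS beta-lactamase reporter GeneBLAzer system; % is scaled to controls: 0 for no effect and ±100 for the full control effect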
- experimental context: HEK293H PPARd-UAS-bla, beta-lactamase FRET ratio, 17 h; series mostly up to 62.6 µM
Results filed as inconclusive are left out. Active and inactive are the calls of the source. Calls follow the shape of the full dose curve.
test readout: outcome

compound	reported result
C[N+]1(C)[C@@H]2CC[C@H]1CC(OC(=O)C(CO)c1ccccc1)C2 (stereo partly specified)	inactive
Cc1c([N+](=O)[O-])cc2c(c1[N+](=O)[O-])C(C)(C)CC2(C)C	inactive
Oc1ccc(Cl)c(Cl)c1	inactive
O=C(N[C@@H]1N=C(c2ccccc2F)c2cccc3c2N(CC3)C1=O)c1cc2ccccc2[nH]1	inactive
c1ccc(N=NNc2ccccc2)cc1	inactive
O=c1c2ccccc2c(=O)c2c1cc(Cl)c1[nH]c3c([nH]c12)c(Cl)cc1c(=O)c2ccccc2c(=O)c13	inactive

// lookup outcome for CCC(C)Nc1c([N+](=O)[O-])cc(C(C)(C)C)cc1[N+](=O)[O-] (stereo unspecified)
inactive

What measured outcome goes with FC(F)C(F)(F)OCC(Cn1cncn1)c1ccc(Cl)cc1Cl (stereo unspecified) ?
inactive

Field request: outcome | item: "CNC(=O)Oc1cc(C)cc(C(C)C)c1"
inactive

# input compound: CC1CN1 (stereo unspecified) ; wanted: its outcome
inactive

Can you look up the measured outcome of "N#Cc1ccc(N(CC(N)=O)CC(F)(F)F)cc1C(F)(F)F" for me?
inactive

Reported outcome for "CC1CCCC1" : what is it?
inactive

// lookup outcome for "O=C(Cl)c1ccccc1F"
inactive

====

- assay comment: qHTS RealTime-Glo MT Cell Viability Assay in HEK293 cells - 8 hour (AID 1224887); also: nearly all actives have a fitted effect of over 50% in size
- experimental context: RealTime-Glo luminescence; series mostly up to 76.8 µM
Records with an inconclusive call do not appear. The source made the active and inactive calls. Calls come from the whole dose curve; as a rule, active = well fitted cell-killing curve with a large enough effect in the repeat runs; inconclusive = weak or mixed curves, or effect the other way; inactive = flat fitted curve, though single readings scatter.
Hi! Could you answer with just one of these? 1 (yes) for active, 0 (no) for inactive

Sample answers from the record:
compound	qualitative label
C[C@H]1[C@H](c2ccc(Cl)cc2)SC(=O)N1C(=O)NC1CCCCC1	1 (yes)
CCN(CC)C(=O)N[C@@H]1C=C2c3cccc4[nH]cc(c34)C[C@@H]2N(C)C1	0 (no)
C[N+]1(C)[C@@H]2CC[C@H]1CC(OC(=O)C(CO)c1ccccc1)C2 (stereo partly specified)	0 (no)

Could you please tell me the result logged for "Cc1c([N+](=O)[O-])cc2c(c1[N+](=O)[O-])C(C)(C)CC2(C)C" in this assay?
0 (no)

Give the logged outcome of this assay for the following compound: "CC(C)N(C(=O)CCl)c1ccccc1"
0 (no)

Which outcome did this test record for the compound "[O-][Cl+3]([O-])([O-])O" ?
0 (no)

GET /call?item= "ClSC(Cl)(Cl)Cl" returns the recorded outcome of this test.
0 (no)

Entry "CNC(=O)Oc1cc(C)cc(C(C)C)c1" : call = ?
0 (no)

# outcome recorded in this test, key = "O=c1[nH]c(Cl)c(Cl)cc1Cl"
0 (no)

Name the outcome recorded for CCNc1nc(NC(C)C(C)C)nc(SC)n1 (stereo unspecified) in the assay.
0 (no)

Please let me know the test result on file for "[F][Sn]([c]1ccccc1)([c]1ccccc1)[c]1ccccc1" .
1 (yes)

Record lookup: outcome of this test for "Fc1ccc(C(OCCN2CCN(CCCc3ccccc3)CC2)c2ccc(F)cc2)cc1" ?
1 (yes)

# fetch the recorded call for "O=C(O)[C@H](O)[C@@H](O)C(=O)O" here
0 (no)

// outcome(item) with item = "O=S(=O)(O)F"
0 (no)

Any idea what this test logged for "C[C@]12CC[C@H]3[C@@H](CCC4=CC(=O)CC[C@@H]43)[C@@H]1CC[C@@H]2OC(=O)CCc1ccco1" ?
0 (no)

Just curious, what result did "CNC(C)(C)Cc1ccccc1" get here?
0 (no)

Short answer needed: outcome of this test for "O=S(=O)(NS(=O)(=O)C(F)(F)F)C(F)(F)F" ?
0 (no)

Tell me the assay call for "[Cl-].[Cl-].[Sn+2]" please.
0 (no)

Short answer needed: outcome of this test for "CCCCN(CCCC)C(=S)[S-].CCCCN(CCCC)C(=S)[S-].[Ni+2]" ?
0 (no)

Test call, this compound: "CN(C)c1ccc(N)cc1"
1 (yes)

Test call for this compound, please: CNC(=O)O/N=C(\C)C(C)S(C)(=O)=O (stereo unspecified)
0 (no)

GET /call?item= CN1[C@@H]2CC[C@H]1CC(O)C2 (stereo partly specified) returns the recorded outcome of this test.
0 (no)
